Experiment: chemical genetic growth profiling, strain panel (AID 1159580);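 further: tested at 20 µM; growth read once vehicle control cultures reached saturation at 30 °C; lower values mean less growth of the strain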
Conditions: S. cerevisiae deletion strains, growth OD, locus YGR040W, strain KSS1
The campaign covered roughly 5,500 compounds. About 2,000 (36%) were called active. Inconclusive results (about 18%) are left out. No stated cut-off is given here; in the data, active means normalized growth mostly below about 0.91 (no sharp cut-off); inconclusive means no clear call, values can overlap the other calls; inactive means mostly above about 0.92. Some of the results follow.
// classify into active, inactive

Cc1cc(Cl)ccc1NNC(=O)c1ccno1    inactive
COc1cc2c(cc1OC)C(C)N(C(=O)c1sc3ccccc3c1Cl)CC2 (stereo not given)    inactive
Cc1ccccc1C(=O)Oc1ccc(C(F)(F)F)cc1[N+](=O)[O-]    inactive

Query: # lookup: test call for Cc1ccc(/C=C2\CSc3ccc(F)cc3C2=O)cc1
Reply: inactive

Query: # lookup: test call for O=S(=O)(Nc1cccc(CCc2ccccn2)c1)c1cc(Cl)c(Cl)cc1Cl
Reply: inactive

Query: # lookup: test call for COc1cc(NC(=S)NNS(=O)(=O)c2ccc(C)cc2)c(OC)cc1Cl
Reply: inactive

Query: # lookup: test call for Cc1ccc(Sc2c(Sc3ccc(C)cc3)c(=O)c2=O)cc1
Reply: active

Query: # lookup: test call for O=C1C(=O)N(CN2CCc3c([nH]c4ccccc34)C2C(F)(F)F)c2ccc(F)cc21 (stereo not given)
Reply: inactive

Query: # lookup: test call for COc1cc(NC(=S)N(C)C)c(OC)cc1Cl
Reply: inactive

* * *

Assay: chemical genetic growth profiling, strain panel (AID 1159580);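 further: tested at 20 µM; growth read once vehicle control cultures reached saturation at 30 °C; lower values mean less growth of the strain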
Conditions: S. cerevisiae deletion strains, growth OD, locus YOR001W, strain rrp6
About 2,000 (36%) of roughly 5,500 compounds were called active. Inconclusive results (about 18%) are left out. No stated cut-off is given here; in the data, active means normalized growth mostly below about 0.91 (no sharp cut-off); inconclusive means no clear call, values can overlap the other calls; inactive means mostly above about 0.92. This is one part of the list.
// classify into active, inactive

Query: # lookup: test call for CC1(C)OC(=O)NC1=O
Reply: inactive

Query: # lookup: test call for O=C(O)C1(O)C[C@@H](O)C(O)[C@H](O)C1 (stereo partly drawn)
Reply: inactive

Query: # lookup: test call for CC1=C(/C=C/C(C)=C/C=C/C(C)=C/C=C/C=C(C)/C=C/C=C(C)/C=C/C(=O)[C@]2(C)C[C@@H](O)CC2(C)C)C(C)(C)C[C@H](O)C1
Reply: inactive

Query: # lookup: test call for CCOC(=O)C(=O)C1(C(=O)OCC)Oc2cc(OC)cc(OC)c2C(=O)C1c1ccccc1 (stereo not drawn)
Reply: inactive

Query: # lookup: test call for CC(CCc1ccccc1)NC(C)C(O)c1ccc(O)cc1 (stereo not drawn)
Reply: inactive

Query: # lookup: test call for CCN(CCO)CCCC(C)Nc1ccnc2cc(Cl)ccc12 (stereo not drawn)
Reply: inactive

Query: # lookup: test call for CCCCNc1cc(C(=O)O)cc(S(N)(=O)=O)c1Oc1ccccc1
Reply: inactive

Query: # lookup: test call for ClC1=C(Cl)C2(Cl)C3C(Cl)C=CC3C1(Cl)C2(Cl)Cl (stereo not drawn)
Reply: inactive

Query: # lookup: test call for CC(Oc1ccccc1)C(=O)N[C@@H]1C(=O)N2[C@@H]1SC(C)(C)[C@@H]2C(=O)O (stereo partly drawn)
Reply: inactive

Query: # lookup: test call for CCCCCCCCCCCCCCCC(=O)OC/C=C(C)/C=C/C=C(C)/C=C/C1=C(C)CCCC1(C)C
Reply: inactive

Query: # lookup: test call for COc1ccc2c(c1)OCc1c-2oc2cc(OC)ccc12
Reply: inactive

Query: # lookup: test call for c1ccc(N=Nc2ccccc2)cc1
Reply: inactive

Query: # lookup: test call for CCCCCCCCNC(C)C(O)c1ccc(SC(C)C)cc1 (stereo not drawn)
Reply: active
